# protocol text: recombinant barcode read abundance after kanamycin selection (control-corrected) (log10(CPM+1)); higher = more efficient recombination; sequences stand for … in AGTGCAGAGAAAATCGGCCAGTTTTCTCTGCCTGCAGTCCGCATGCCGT…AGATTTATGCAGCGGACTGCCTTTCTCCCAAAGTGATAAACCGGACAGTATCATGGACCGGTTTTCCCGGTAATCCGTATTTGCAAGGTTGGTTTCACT; site = the 11-nt target;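 also: IS621 recombinase and bridge RNA in Escherichia coli cells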
measure name: recombinant barcode read abundance (log10)

Input: Retrieve recombinant barcode read abundance (log10) measured for CGCTGGACTTGGGTTCTAACCTGTTGCCT (site CGCTAGACTAG) and print it.
Output: 0.0452

Input: Supply reported recombinant barcode read abundance (log10) belonging to this sequence: AGTGAATCTTGGGTTCTAACCTGTTGCCT (site AGTGAATCTAG)
Output: 0.541

Input: Provide one value: measured recombinant barcode read abundance (log10) of GTGAGGCCTTGGGTTCTAACCTGTTGCCT (site CTGAGGCCTAG)
Output: 0.151

Input: Return recombinant barcode read abundance (log10) (reported value) for this sequence: ACTTGAACTTGGGTTCTAACCTGTTGCTT (site ACTTTAGCTAA)
Output: 0.0785

Input: Name the recorded recombinant barcode read abundance (log10) of the sequence listed here: GAGCCACCTTGGGTTCTAACCTGTTGCTG (site GAGCCGCCTCG)
Output: 0.104

Input: Answer with reported recombinant barcode read abundance (log10) of CTTTCGCCTTGGGTTCTAACCTGTTGCCT (site CTTTCGCCTAG)
Output: 0.0534

Input: Look up and state reported recombinant barcode read abundance (log10) for CACTGGGCTTGGGTTCTAACCTGTTGCAG (site CACTTGGCTCT)
Output: 0.115

Input: Name the recorded recombinant barcode read abundance (log10) of the item ACTAGTGCTTGGGTTCTAACCTGTTGCCT (site AGTAGTGCTAG) in your answer.
Output: 0.0194

Input: Give a short answer stating reported recombinant barcode read abundance (log10) for AGGACCACTTGGGTTCTAACCTGTTGCCA (site ATGACCGCTTG) .
Output: 0.0948

Input: Identify measured recombinant barcode read abundance (log10) associated with CCATTGTCTTGGGTTCTAACCTGTTGCCG (site GTTAGAACTAA)
Output: 0.128
